Tested on: Acinetobacter V12 21193/1 (clinical isolate)
Format: cell-based
Where a SMILES comes first, the peptide text is derived from it. [ ]: non-standard residue; d: D form.
PROPERTY NAME: Minimal inhibitory concentration (MIC) Acinetobacter V12 21193/1 (µg/mL)

COMPOUND	RECORDED MEASUREMENT
CC(C)C[C@@H]1NC(=O)[C@H](Cc2c[nH]c3ccccc23)NC(=O)[C@H](CCCNC(=N)N)NC(=O)[C@@H]2CCCN2C(=O)[C@H]2CCCN2C(=O)[C@H](CCCNC(=N)N)NC(=O)[C@H](C(C)C)NC(=O)[C@H](Cc2ccc(O)cc2)NC(=O)[C@H](CCCCN)NC(=O)[C@H](Cc2c[nH]c3ccccc23)NC(=O)[C@H](CCCNC(=N)N)NC(=O)[C@H](CCCNC(=N)N)NC(=O)[C@H](CCCCN)NC(=O)[C@H](CCCCN)NC1=O [Ex. 2] (cyclo(RWLKKRRWKYVR[dP]P))	25

Just for reference, patent US7582604B2 is where these values come from.
